Kindly supply the reported pEC50 values for the records listed here.
target: T1, human activated Protein C (human, UniProt P04070 43-461); assay: direct ELISA, aPC coated, hIgG1
T1 construct: also called human aPC; hAPC
One number for each entry, as −log10 of the molar value.

I'm hoping you can list pEC50 for every binder here, please.
1. C26B9 hIgG1 (antibody, V domains shown) VH: EVQLLESGGGLVQPGGSLRLSCAASGFTFSSYGMHWVRQAPGKGLEWVSVIYSGGSTYYADSVKGRFTISRDNSKNTLYLQMNSLRAEDTAVYYCARMGRAFDIWGQGTLVTVTS VL: QSVLTQPPSASGTPGQRVTISCSGSSSNIRSNTVNWYQQLPGTAPKLLIYGNSNRPSGVPDRFSGSKSGTSASLAISGLRSEDEADYYCQSYDSSLSGDVVFGGGTKLTVLG
2. O3E7 hIgG1 (antibody, V domains shown, also called O3E7-IgG; 03E7) VH: EVQLLESGGGLVQPGGSLRLSCAASGFTFSSYSMNWVRQAPGKGLEWVSAISGSGGSTYYADSVKGRFTISRDNSKNTLYLQMNSLRAEDTAVYYCARDRRVRGIYDAFDMWGQGTLVTVTS VL: QSVLTQPPSTSGTPGQRVTISCTGSSSNIGAGFDVHWYQQLPGTAPKLLIYGNSNRPSGVPDRFSGSKSGTSASLAISGLRSEDEADYYCATWQDTLTGWMFGGGTKLTVLG
3. C25K23 IgG1 (antibody, V domains shown, the claims call them variable regions; also called C25K23 hIgG; C25K23 hIgG1) VH: EVQLLESGGGLVQPGGSLRLSCAASGFTFSSYWMSWVRQAPGKGLEWVSGVSWNGSRTHYADSVKGRFTISRDNSKNTLYLQMNSLRAEDTAVYYCALTGRSGWMRFPNWFDPWGQGTLVTVSS VL: QSVLTQPPSASGTPGQRVTISCTGSSSNIGAAYDVHWYQQLPGTAPKLLIYGNNKRPSGVPDRFSGSKSGTSASLAISGLRSEDEADYYCQSYDSSLSGSVFGGGTKLTVLG

[9.19, 7.77, 8.90]
